# TESTED_SYSTEM: Androgen receptor (Homo sapiens, UniProt P10275)
# Sequence (P10275 whole entry): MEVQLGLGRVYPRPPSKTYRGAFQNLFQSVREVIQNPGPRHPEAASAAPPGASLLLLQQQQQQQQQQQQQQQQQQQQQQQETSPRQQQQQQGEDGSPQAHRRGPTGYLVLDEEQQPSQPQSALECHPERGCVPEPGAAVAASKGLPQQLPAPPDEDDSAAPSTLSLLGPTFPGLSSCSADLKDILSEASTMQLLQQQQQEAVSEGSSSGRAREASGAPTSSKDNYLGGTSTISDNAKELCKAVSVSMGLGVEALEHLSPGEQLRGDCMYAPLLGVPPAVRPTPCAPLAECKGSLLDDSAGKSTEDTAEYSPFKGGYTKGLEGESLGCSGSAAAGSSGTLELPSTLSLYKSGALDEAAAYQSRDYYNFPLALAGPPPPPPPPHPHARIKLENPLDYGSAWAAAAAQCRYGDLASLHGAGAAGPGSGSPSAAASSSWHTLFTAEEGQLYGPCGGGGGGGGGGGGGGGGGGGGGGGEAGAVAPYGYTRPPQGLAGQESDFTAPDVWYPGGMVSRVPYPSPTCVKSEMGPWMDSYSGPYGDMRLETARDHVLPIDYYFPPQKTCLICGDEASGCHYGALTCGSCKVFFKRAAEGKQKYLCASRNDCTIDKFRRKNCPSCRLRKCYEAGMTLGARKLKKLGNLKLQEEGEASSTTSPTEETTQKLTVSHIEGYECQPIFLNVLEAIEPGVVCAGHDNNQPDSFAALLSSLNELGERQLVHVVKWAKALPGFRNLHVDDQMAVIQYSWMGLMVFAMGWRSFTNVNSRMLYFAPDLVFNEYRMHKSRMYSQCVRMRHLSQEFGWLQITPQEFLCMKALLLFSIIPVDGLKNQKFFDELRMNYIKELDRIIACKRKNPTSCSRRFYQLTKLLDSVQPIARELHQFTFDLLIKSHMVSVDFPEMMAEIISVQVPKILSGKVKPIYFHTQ
# ASSAY_SUMMARY: Antagonist activity at androgen receptor in human MDA-kb2 cells assessed as inhibition of DHT-induced luciferase activity at 100 uM by luciferase reporter gene assay
# Format: functional, cell-based
REPORTED_METRIC: AR antagonist activity at 100 uM (active/inactive)

O=c1c(-c2ccc(O)cc2)coc2cc(O)ccc12
Not Active
O=c1cc(-c2ccccc2)oc2ccc(O)cc12 [6-HYDROXYFLAVONE]
Not Active
COc1cc(O)c2c(=O)c(-c3ccc(O)cc3)coc2c1
Not Active

---

# TESTED_SYSTEM: Glucocorticoid receptor (Homo sapiens) (UniProt P04150)
# Sequence (P04150 whole entry): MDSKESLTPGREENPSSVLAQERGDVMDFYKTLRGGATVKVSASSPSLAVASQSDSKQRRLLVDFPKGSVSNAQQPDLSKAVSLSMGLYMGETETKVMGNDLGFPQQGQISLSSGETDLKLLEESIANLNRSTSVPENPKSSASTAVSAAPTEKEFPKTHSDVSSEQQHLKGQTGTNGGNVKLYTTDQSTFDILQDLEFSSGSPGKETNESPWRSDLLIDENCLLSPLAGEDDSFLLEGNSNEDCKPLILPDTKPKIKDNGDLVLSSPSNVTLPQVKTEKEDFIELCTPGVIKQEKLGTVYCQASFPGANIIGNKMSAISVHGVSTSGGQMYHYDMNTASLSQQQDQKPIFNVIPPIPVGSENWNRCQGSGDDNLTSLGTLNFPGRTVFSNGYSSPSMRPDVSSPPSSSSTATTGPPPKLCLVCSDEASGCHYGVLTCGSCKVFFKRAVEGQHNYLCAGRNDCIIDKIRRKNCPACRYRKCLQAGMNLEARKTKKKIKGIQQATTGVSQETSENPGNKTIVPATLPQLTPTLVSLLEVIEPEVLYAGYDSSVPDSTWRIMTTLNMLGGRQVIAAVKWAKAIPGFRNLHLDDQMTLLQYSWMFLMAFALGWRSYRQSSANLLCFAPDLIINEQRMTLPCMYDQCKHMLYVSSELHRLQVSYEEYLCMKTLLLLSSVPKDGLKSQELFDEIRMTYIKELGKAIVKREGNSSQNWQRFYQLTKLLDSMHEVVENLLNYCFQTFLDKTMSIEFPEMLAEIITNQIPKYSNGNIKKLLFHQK
# EXPERIMENTAL_CONTEXT: MDA-kb2
# Description: Agonist activity at glucocorticoid receptor in human MDA-kb2 cells assessed as stimulation of luciferase activity by luciferase reporter gene assay
Okay, here is how we bin by EC150: one (below 3 µM), two (3 µM to below 10 µM), three (10 µM or more)

Field: example entries. Status: answers known.
COc1ccc(-c2cc(=O)c3c(O)cc(O)cc3o2)cc1
one
COc1ccc2oc(-c3ccccc3)cc(=O)c2c1
one
O=c1cc(-c2ccccc2)oc2cc(O)c(O)c(O)c12
three

// next entry
Prompt line: Which class is correct for the following molecule? "O=c1cc(-c2ccccc2)oc2cc(O)ccc12"
Response line: two

---

# TESTED_SYSTEM: Androgen receptor (Homo sapiens)
# ASSAY_SUMMARY: Antagonist activity at androgen receptor in human MDA-kb2 cells assessed as inhibition of DHT-induced luciferase activity by luciferase reporter gene assay
REPORTED_METRIC: pIC50
FYI, pIC50 means -log10 of a concentration in mol per litre.

COc1cccc2oc(-c3ccccc3)cc(=O)c12
5.06

Prompt line: Record request: pIC50 value, item "O=c1cc(-c2ccccc2)oc2ccccc12"
Response line: 5.23

Prompt line: Record request: pIC50 value, item O=C1CC(c2ccccc2)Oc2ccccc21 (configuration not stated)
Response line: 4.70

Prompt line: Record request: pIC50 value, item "O=c1c(O)c(-c2ccccc2)oc2ccccc12"
Response line: 4.63

---

# TESTED_SYSTEM: Androgen receptor (Homo sapiens)
# ASSAY_SUMMARY: Antagonist activity at androgen receptor in human MDA-kb2 cells assessed as inhibition of DHT-induced luciferase activity by luciferase reporter gene assay
# EXPERIMENTAL_CONTEXT: mda-kb2
REPORTED_METRIC: pIC50
FYI, pIC50 means -log10 of a concentration in mol per litre.

Prompt line: Which measured pIC50 belongs to "O=c1cc(-c2ccccc2)oc2ccccc12" , tested on Androgen receptor (Homo sapiens)?
Response line: 5.23

---

Each item that follows carries a reported EC150.
# TESTED_SYSTEM: Glucocorticoid receptor (Homo sapiens) (UniProt P04150)
# EXPERIMENTAL_CONTEXT: MDA-kb2
Please state the figure in µM; there is no need to write the unit.

COc1cccc2oc(-c3ccccc3)cc(=O)c12
5.5
COc1ccc2oc(-c3ccccc3)c(O)c(=O)c2c1
10.3
Cc1ccc2oc(-c3ccccc3)cc(=O)c2c1
3.6
COc1ccc2c(c1)C(=O)CC(c1ccccc1)O2 (stereo unspecified)
4.08
O=c1cc(-c2ccccc2)oc2ccc(Cl)cc12
12.6

Prompt line: Record request: EC150 value, item "C[C@]12CCC(=O)C[C@@H]1CC[C@@H]1[C@@H]2CC[C@]2(C)[C@@H](O)CC[C@@H]12"
Response line: 0.0005

Prompt line: Record request: EC150 value, item O=C1CC(c2ccccc2)Oc2ccccc21 (stereo unspecified)
Response line: 380

Prompt line: Record request: EC150 value, item "O=c1c(O)c(-c2ccccc2)oc2cc(O)cc(O)c12"
Response line: 633

Prompt line: Record request: EC150 value, item "O=c1cc(-c2ccccc2)oc2ccccc12"
Response line: 26.1

Prompt line: Record request: EC150 value, item "O=c1cc(-c2ccccc2)oc2cccc(O)c12"
Response line: 6

Prompt line: Record request: EC150 value, item "O=c1cc(-c2ccccc2)oc2cc(O)cc(O)c12"
Response line: 1.5

---

# TESTED_SYSTEM: Androgen receptor (Homo sapiens) (UniProt P10275)
# Sequence (whole entry): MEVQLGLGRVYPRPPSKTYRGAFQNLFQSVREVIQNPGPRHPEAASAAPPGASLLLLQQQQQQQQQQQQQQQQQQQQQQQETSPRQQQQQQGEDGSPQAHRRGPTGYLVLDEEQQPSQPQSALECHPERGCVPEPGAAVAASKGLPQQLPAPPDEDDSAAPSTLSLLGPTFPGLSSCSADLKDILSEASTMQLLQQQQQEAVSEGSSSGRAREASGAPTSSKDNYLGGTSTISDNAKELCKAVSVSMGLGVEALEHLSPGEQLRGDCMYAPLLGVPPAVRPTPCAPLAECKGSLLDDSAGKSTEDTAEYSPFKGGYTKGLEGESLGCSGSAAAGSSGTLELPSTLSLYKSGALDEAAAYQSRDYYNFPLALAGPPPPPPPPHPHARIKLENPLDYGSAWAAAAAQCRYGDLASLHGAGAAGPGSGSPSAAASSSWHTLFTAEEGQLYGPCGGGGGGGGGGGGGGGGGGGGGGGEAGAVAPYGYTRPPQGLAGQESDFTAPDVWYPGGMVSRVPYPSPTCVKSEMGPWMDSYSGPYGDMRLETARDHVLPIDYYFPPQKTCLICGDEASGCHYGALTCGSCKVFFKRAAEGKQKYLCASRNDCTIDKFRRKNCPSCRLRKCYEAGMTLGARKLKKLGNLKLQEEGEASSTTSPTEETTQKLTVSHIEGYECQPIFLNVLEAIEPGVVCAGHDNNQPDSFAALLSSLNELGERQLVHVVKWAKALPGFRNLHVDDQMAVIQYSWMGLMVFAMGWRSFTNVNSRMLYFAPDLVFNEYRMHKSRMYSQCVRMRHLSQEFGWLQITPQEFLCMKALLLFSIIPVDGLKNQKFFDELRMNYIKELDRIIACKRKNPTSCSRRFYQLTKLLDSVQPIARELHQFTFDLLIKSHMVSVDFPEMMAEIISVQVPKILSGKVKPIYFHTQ
# EXPERIMENTAL_CONTEXT: MDA-kb2
# Description: Agonist activity at androgen receptor in human MDA-kb2 cells assessed as stimulation of luciferase activity by luciferase reporter gene assay
REPORTED_METRIC: EC150 (µM)
Please state the figure in µM; there is no need to write the unit.

Cc1ccc2oc(-c3ccccc3)cc(=O)c2c1
3.6
COc1cc(O)c2c(=O)c(-c3ccc(O)cc3)coc2c1
3.2
O=c1c(-c2ccc(O)cc2)coc2cc(O)cc(O)c12
4.4
O=c1cc(-c2ccccc2)oc2cccc(O)c12
6
O=c1cc(-c2ccccc2)oc2cc(O)cc(O)c12
1.5

Continue with the compound presented below.
Prompt line: Record request: EC150 value, item "O=c1c(O)c(-c2ccccc2)oc2cc(O)cc(O)c12"
Response line: 633

---

# TESTED_SYSTEM: Androgen receptor (Homo sapiens) (UniProt P10275)
# EXPERIMENTAL_CONTEXT: MDA-kb2
Each item that follows carries a reported log10 of EC150.
Values reflect log10 of reported EC150 (µM).

COc1cccc2oc(-c3ccccc3)cc(=O)c12
0.74

Prompt line: Record request: log10 of EC150 value, item "O=c1cc(-c2ccccc2)oc2cc(O)ccc12"
Response line: 0.49

Prompt line: Record request: log10 of EC150 value, item "O=c1c(-c2ccc(O)cc2)coc2cc(O)ccc12"
Response line: 1.00

Prompt line: Record request: log10 of EC150 value, item "O=c1cc(-c2ccccc2)oc2ccccc12"
Response line: 1.42

Prompt line: Record request: log10 of EC150 value, item "COc1ccc2oc(-c3ccccc3)cc(=O)c2c1"
Response line: -0.15
